- Tested On: human EGFRvIII protein on the cell surface (human) (UniProt P00533)
- Assay Method Text: FACS on U87MG-EGFRvIII cells
Measure Name: EC50 (nM)

{"columns": ["Binder", "Result Units", "Experimental Result"],
 "data": [
  ["Humanized antibody h75G7C6-1 (antibody, human IgG1, V domains shown) VH: EVQLVQSGAEVKKPGASVKVSCKASGYTFTDYNMDWVKQAPGQGLEWIGDINPNNADTIYNQKFKGRVTLTVDKSTSTVYMELSSLRSEDTAVYYCARGDYDGYYPVYYAMDYWGQGTTVTVSS VL: EIVLTQSPATLSLSPGERATLSCRASSSVSSSYLHWYQQKPGQAPRLLIYSTSNLAAGIPARFSGSGSGTDFTLTISSLEPEDFAVYYCQQYSGYPLTFGGGTKVEIK", "nM", 4.93]
]}
